The measurements presented in this section are drawn from patent US20230233569A1.

TESTED ON: KRAS G13C (Homo sapiens, UniProt P01116+P62937, G13C)
Sequence (P01116 1-169 isoform P01116-2 G13C): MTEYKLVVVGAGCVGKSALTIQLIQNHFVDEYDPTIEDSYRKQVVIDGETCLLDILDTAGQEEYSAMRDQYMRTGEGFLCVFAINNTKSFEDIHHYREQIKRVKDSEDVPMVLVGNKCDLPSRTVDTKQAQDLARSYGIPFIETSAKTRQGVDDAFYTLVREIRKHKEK
Sequence (P62937 whole entry): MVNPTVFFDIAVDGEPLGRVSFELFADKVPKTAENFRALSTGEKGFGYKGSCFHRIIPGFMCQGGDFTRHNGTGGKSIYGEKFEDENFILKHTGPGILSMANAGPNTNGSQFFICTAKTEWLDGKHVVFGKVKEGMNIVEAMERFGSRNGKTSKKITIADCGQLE
MEASUREMENT PROTOCOL: Disruption of BRAF RBD interaction with Ras (FRET / MOA assay, with Cyclophilin A)
Format: biochemical
MEASUREMENT CONTEXT: read-out: KRAS G13C FRET data, IC50
pIC50: −log10 of the molar value.
Please respond with reported pIC50 for every item in the list.

input: Given CCn1c(-c2cccnc2[C@H](C)OC)c2c3cc(ccc31)-c1cc(O)cc(c1)C[C@H](NC(=O)[C@H](C(C)C)N(C)C(=O)O[C@H]1CCOC1)C(=O)N1CCC[C@H](N1)C(=O)OCC(C)(C)C2 [Example A209] , respond with its pIC50.
output: 6.00 to 7.00

input: Given CCn1c(-c2cccnc2[C@H](C)OC)c2c3cc(ccc31)-c1cc(O)cc(c1)C[C@H](NC(=O)[C@H](C(C)C)N(C)C(=O)C1(C#N)CC1)C(=O)N1CCC[C@H](N1)C(=O)OCC(C)(C)C2 (racemic) [Example A159] , respond with its pIC50.
output: 7.00 to 8.00

input: Given CCn1c(-c2cccnc2[C@H](C)OC)c2c3cc(ccc31)-c1csc(n1)C[C@H](NC(=O)[C@H](C(C)C)N(C)C(=O)[C@H]1CCCO1)C(=O)N1CCC[C@H](N1)C(=O)OCC(C)(C)C2 [Example A238] , respond with its pIC50.
output: 5.00 to 6.00

input: Given CCn1c(-c2cccnc2[C@H](C)OC)c2c3cc(ccc31)-c1csc(n1)C[C@H](NC(=O)[C@H](C(C)C)N(C)C(=O)N1[C@@H](C)CN(C)C[C@@H]1C)C(=O)N1CCC[C@H](N1)C(=O)OCC(C)(C)C2 [Example A609] , respond with its pIC50.
output: 5.00 to 6.00

input: Given CCn1c(-c2cccnc2[C@H](C)OC)c2c3cc(ccc31)-c1csc(n1)C[C@H](NC(=O)[C@H](C(C)C)N(C)C(=O)NC)C(=O)N1CCC[C@H](N1)C(=O)OCC(C)(C)C2 [Example A137] , respond with its pIC50.
output: 5.00 to 6.00

input: Given CCn1c(-c2cccnc2[C@H](C)OC)c2c3cc(ccc31)-c1csc(n1)C[C@H](NC(=O)[C@H](C(C)C)N(C)C(=O)N1C[C@H](N)[C@@H](F)C1)C(=O)N1CCC[C@H](N1)C(=O)OCC(C)(C)C2 (atropisomer, axis not shown) [Example A567] , respond with its pIC50.
output: 6.00 to 7.00

input: Given CCn1c(-c2cccnc2[C@H](C)OC)c2c3cc(ccc31)-c1csc(n1)C[C@H](NC(=O)[C@H](C(C)C)N(C)C(=O)N(C)C(C)C)C(=O)N1CCC[C@H](N1)C(=O)OCC(C)(C)C2 [Example A350] , respond with its pIC50.
output: 6.00 to 7.00

input: Given CCn1c(-c2cccnc2[C@H](C)OC)c2c3cc(ccc31)-c1csc(n1)C[C@H](NC(=O)[C@H](C(C)C)N(C)C(=O)O[C@H]1CCOC1)C(=O)N1CCC[C@H](N1)C(=O)OCC(C)(C)C2 [Example A210] , respond with its pIC50.
output: 5.00 to 6.00

input: Given CCn1c(-c2cccnc2[C@H](C)OC)c2c3cc(ccc31)-c1cc(O)cc(c1)C[C@H](NC(=O)[C@H](C(C)C)N(C)C(=O)[C@H]1C[C@H]1C)C(=O)N1CCC[C@H](N1)C(=O)OCC(C)(C)C2 [Example A146] , respond with its pIC50.
output: 7.00 to 8.00

input: Given CCn1c(-c2cccnc2[C@H](C)OC)c2c3cc(ccc31)-c1csc(n1)C[C@H](NC(=O)[C@H](C(C)C)N(C)C(=O)N1C[C@H]3OCCN(C)[C@H]3C1)C(=O)N1CCC[C@H](N1)C(=O)OCC(C)(C)C2 (atropisomer, axis not shown) [Example A451] , respond with its pIC50.
output: 6.00 to 7.00

input: Given CCn1c(-c2cccnc2[C@H](C)OC)c2c3cc(ccc31)-c1csc(n1)C[C@H](NC(=O)[C@H](C(C)C)N(C)C(=O)N1CCN(C(=O)CCN(C)C)CC1)C(=O)N1CCC[C@H](N1)C(=O)OCC(C)(C)C2 [Example A459] , respond with its pIC50.
output: 7.00 to 8.00

input: Given CCn1c(-c2cccnc2[C@H](C)OC)c2c3cc(ccc31)-c1cc(O)cc(c1)C[C@H](NC(=O)[C@H](C(C)C)N(C)C(=O)[C@H]1CCN(C(=O)[C@@]3(C)CCCN3)C1)C(=O)N1CCC[C@H](N1)C(=O)OCC(C)(C)C2 [Example A135] , respond with its pIC50.
output: 7.00 to 8.00

input: Given CCn1c(-c2cccnc2[C@H](C)OC)c2c3cc(ccc31)-c1cccc(c1)C[C@H](NC(=O)[C@H](C(C)C)N(C)C(=O)[C@H]1CCN(C(=O)CN(C)C)C1)C(=O)N1CCC[C@H](N1)C(=O)OCC(C)(C)C2 [Example A96] , respond with its pIC50.
output: 6.00 to 7.00

input: Given CCn1c(-c2cccnc2[C@H](C)OC)c2c3cc(ccc31)-c1csc(n1)C[C@H](NC(=O)[C@H](C(C)C)N(C)C(=O)[C@H]1CCN(C(=O)C(C)(C)N(C)C)C1)C(=O)N1CCC[C@H](N1)C(=O)OCC(C)(C)C2 [Example A113] , respond with its pIC50.
output: 5.00 to 6.00

input: Given CCn1c(-c2cccnc2[C@H](C)OC)c2c3cc(ccc31)-c1csc(n1)C[C@H](NC(=O)[C@H](C(C)C)N(C)C(=O)N1CCCC13CCOCC3)C(=O)N1CCC[C@H](N1)C(=O)OCC(C)(C)C2 (atropisomer, axis not shown) [Example A520] , respond with its pIC50.
output: 6.00 to 7.00

input: Given CCn1c(-c2cccnc2[C@H](C)OC)c2c3cc(ccc31)-c1cccc(c1)C[C@H](NC(=O)[C@H](C(C)C)N(C)C(=O)[C@H]1CCN(C(C)=O)C1)C(=O)N1CCC[C@H](N1)C(=O)OCC(C)(C)C2 [Example A60] , respond with its pIC50.
output: < 5.00

input: Given CCn1c(-c2cccnc2[C@H](C)OC)c2c3cc(ccc31)-c1csc(n1)C[C@H](NC(=O)[C@H](C(C)C)N(C)C(=O)N1CC3(CC(O)C3)C1)C(=O)N1CCC[C@H](N1)C(=O)OCC(C)(C)C2 (atropisomer, axis not shown) [Example A510] , respond with its pIC50.
output: 6.00 to 7.00

* * *

TESTED ON: KRAS G13C (Homo sapiens, UniProt P01116+P62937, G13C)
MEASUREMENT PROTOCOL: Disruption of BRAF RBD interaction with Ras (FRET / MOA assay, with Cyclophilin A)
Assay type: biochemical
MEASUREMENT CONTEXT: KRAS G13C; read-out: KRAS G13C FRET data IC50
OBSERVABLE: IC50

input: Given C=CC(=O)N1CC[C@H](C(=O)N(C)[C@H](C(=O)N[C@H]2Cc3cc(OC(=O)CN)cc(c3)-c3ccc4c(c3)c(c(-c3ccccc3CCOC)n4CC)CC(C)(C)COC(=O)[C@@H]3CCCN(N3)C2=O)C(C)C)C1 [Example A008] , respond with its IC50.
output: 1 to 10 µM

input: Given C=CC(=O)N1CC[C@H](C(=O)N(C)[C@H](C(=O)N[C@H]2Cc3nc(cs3)-c3ccc4c(c3)c(c(-c3cccnc3COC)n4CC)CC(C)(C)COC(=O)[C@@H]3CCCN(N3)C2=O)C(C)C)C1 [Example A094] , respond with its IC50.
output: > 10 µM

* * *

Please respond with reported pIC50 for every item in the list.
TESTED ON: NRAS WT (Homo sapiens, UniProt P01111+P62937)
Sequence (P01111 whole entry): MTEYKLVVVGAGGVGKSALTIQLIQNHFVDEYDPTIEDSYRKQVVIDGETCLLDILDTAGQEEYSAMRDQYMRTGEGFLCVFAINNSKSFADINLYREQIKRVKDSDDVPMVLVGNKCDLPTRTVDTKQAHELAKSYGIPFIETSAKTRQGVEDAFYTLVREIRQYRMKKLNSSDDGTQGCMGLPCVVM
Sequence (P62937 whole entry): as the sequence (P62937 whole entry) above
MEASUREMENT PROTOCOL: Ras-Raf disruption / FRET / MOA assay (BRAF RBD)
Assay type: biochemical
MEASUREMENT CONTEXT: NRAS WT; read-out: NRAS WT FRET data IC50
pIC50: −log10 of the molar value.

input: Please respond with reported pIC50 (system NRAS WT (Homo sapiens, UniProt P01111+P62937)) for CCn1c(-c2cccnc2[C@H](C)OC)c2c3cc(ccc31)-c1csc(n1)C[C@H](NC(=O)[C@H](C(C)C)N(C)C(=O)N1CCCN(C(=O)[C@@H]3CN3)CC1)C(=O)N1CCC[C@H](N1)C(=O)OCC(C)(C)C2 (atropisomer, axis not shown) .
output: 7.00 to 8.00

input: Please respond with reported pIC50 (system NRAS WT (Homo sapiens, UniProt P01111+P62937)) for CCn1c(-c2cccnc2[C@H](C)OC)c2c3cc(ccc31)-c1csc(n1)C[C@H](NC(=O)[C@H](C(C)C)N(C)C(=O)N1CCN(C(=O)[C@H]3CN3)C[C@H]1C)C(=O)N1CCC[C@H](N1)C(=O)OCC(C)(C)C2 .
output: 7.00 to 8.00

input: Please respond with reported pIC50 (system NRAS WT (Homo sapiens, UniProt P01111+P62937)) for CCn1c(-c2cccnc2[C@H](C)OC)c2c3cc(ccc31)-c1cc(cc(C(F)F)c1)C[C@H](NC(=O)[C@H](C1CCCC1)N1CC[C@]3(CCN(C(=O)[C@@H]4N[C@@H]4C4CC4)C3)C1)C(=O)N1CCC[C@H](N1)C(=O)OCC(C)(C)C2 .
output: 5.00 to 6.00

input: Please respond with reported pIC50 (system NRAS WT (Homo sapiens, UniProt P01111+P62937)) for CCn1c(-c2cccnc2[C@H](C)OC)c2c3cc(ccc31)-c1cc(O)cc(c1)C[C@H](NC(=O)[C@H](C(C)C)N(C)C(=O)C1CCN(S(=O)(=O)[C@@H]3CN3C)CC1)C(=O)N1CCC[C@H](N1)C(=O)OCC(C)(C)C2 (single isomer, unassigned) .
output: 6.00 to 7.00
